Reference source for all entries: PubChem BioAssay (NCATS)

Test: qHTS assay for cell viability of HEK293 cells (AID 743288); further: on the % scale 0 is the no-effect control and ±100 the full control effect; nearly all actives have a fitted effect of over 50% in size
Settings: ATP luminescence (CellTiter-Glo), 18 h; active compounds read low
Records with an inconclusive call do not appear. Active and inactive are the calls of the source. The call rests on the fitted dose curve; in most records, active means well fitted cell-killing curve with a large enough effect; inconclusive means small, poorly fitted or top-dose-only effect, or effect the other way; inactive means flat fitted curve, though single readings scatter.
max response values for the molecules below.

Some solved cases for reference:
>  <MOLECULE>
CCN(CC)c1nc(C)cc(OP(=S)(OC)OC)n1

>  <QUANTITY_KIND>
max response

>  <MEASUREMENT>
-11.6% (inactive)

$$$$
>  <MOLECULE>
CN(C)c1nc(=O)n(C2CCCCC2)c(=O)n1C

>  <QUANTITY_KIND>
max response

>  <MEASUREMENT>
-6.56% (inactive)

$$$$
>  <MOLECULE>
CCCSC(=O)N(CCC)CCC

>  <QUANTITY_KIND>
max response

>  <MEASUREMENT>
-7.74% (inactive)

$$$$
>  <MOLECULE>
CCNP(=S)(OC)O/C(C)=C/C(=O)OC(C)C (stereo unspecified)

>  <QUANTITY_KIND>
max response

>  <MEASUREMENT>
-5.26% (inactive)

$$$$
>  <MOLECULE>
CC(C)C(C(=O)OC(C#N)c1cccc(Oc2ccccc2)c1)c1ccc(Cl)cc1 (stereo unspecified)

>  <QUANTITY_KIND>
max response

>  <MEASUREMENT>
-26.6% (inactive)

$$$$

Kindly consider the entry below.
Record request: max response value, item COC(=O)c1ccccc1CS(=O)(=O)NC(=O)Nc1nc(OC)cc(OC)n1
-8.65% (inactive)

====

Biological target: Alpha-galactosidase (Coffea arabica) (UniProt Q42656)
Sequence (Q42656 whole entry, looked up): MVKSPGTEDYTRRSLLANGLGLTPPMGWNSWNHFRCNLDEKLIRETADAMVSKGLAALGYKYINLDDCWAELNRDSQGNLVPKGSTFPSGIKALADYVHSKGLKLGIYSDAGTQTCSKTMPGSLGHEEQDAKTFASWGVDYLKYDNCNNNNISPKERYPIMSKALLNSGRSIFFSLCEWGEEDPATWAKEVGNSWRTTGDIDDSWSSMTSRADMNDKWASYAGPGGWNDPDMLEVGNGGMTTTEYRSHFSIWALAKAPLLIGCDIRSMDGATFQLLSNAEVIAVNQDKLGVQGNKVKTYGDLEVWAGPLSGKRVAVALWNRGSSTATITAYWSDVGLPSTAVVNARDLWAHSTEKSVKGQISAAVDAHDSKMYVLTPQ
Test: Counterscreen for Glucocerebrosidase Inhibitors: qHTS Assay for Coffee Bean alpha-Galactosidase at pH 5.9 (AID 998);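 further: plate controls were uninhibited enzyme for no effect and no-enzyme basal signal for full effect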
Conditions: coffee bean alpha-galactosidase enzyme assay; series mostly up to 76.9 µM
Calls of active or inactive are those of the source. The call rests on the fitted dose curve; in most records, active means well fitted curve in the direction sought with a large enough effect; inactive means no such curve, though single readings can be large or run the other way.
QUANTITY_KIND: outcome

Some solved cases for reference:
>  <MOL_SMILES>
N[C@@H](Cc1cc(O)c(O)cc1O)C(=O)O

>  <MEASUREMENT>
inactive

$$$$
>  <MOL_SMILES>
COc1c2c(nc3ccccc13)O[C@@H]([C@@](C)(O)CO)C2

>  <MEASUREMENT>
inactive

$$$$
>  <MOL_SMILES>
CC(=O)NCCc1ccc(O)c(O)c1

>  <MEASUREMENT>
inactive

$$$$
>  <MOL_SMILES>
N=C1Sc2ccccc2C2=NCCCN12

>  <MEASUREMENT>
inactive

$$$$

Kindly consider the entry below.
Record request: outcome value, item CN1CC[C@@]2(CCN3CCc4c(oc5ccccc45)[C@@H]3C2)N(C)C1=O
inactive

====

Experiment: qHTS assay for small molecule antagonists of the retinoid-related orphan receptor gamma (ROR-gamma) signaling pathway - cell viability counter screen (AID 720652);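 further: compound exposure lasted 16 hr before ATP read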
Conditions: RORgamma reporter cell line viability counter screen; series mostly up to 92.2 µM
Description: National Center for Advancing Translational Sciences [NCATS] NIH Chemical Genomics Center [NCGC] National Institutes of Environmental Health Sciences [NIEHS] National Toxicology Program [NTP] […] The CHO cell-based assay utilizes a TET-inducible ROR expression factor and ROR response element-LUC reporter gene. Reporter activity was induced using doxycycline and measured after 16hr incubation. […]
Records with an inconclusive call do not appear. Active and inactive are the calls of the source. Calls come from the whole dose curve; as a rule, active = well fitted cell-killing curve with a large enough effect in the repeat runs; inconclusive = weak or mixed curves, or effect the other way; inactive = flat fitted curve, though single readings scatter.
Respond with a class label; see active, inactive

>  <COMPOUND>
[Cd+2].[Cl-].[Cl-]

>  <LABEL>
active

$$$$
>  <COMPOUND>
C=C1CC[C@H](O)C/C1=C/C=C1\CCC[C@]2(C)[C@@H]([C@H](C)CCCC(C)C)CC[C@@H]12

>  <LABEL>
active

$$$$
>  <COMPOUND>
[CH3][Hg][Cl]

>  <LABEL>
active

$$$$
>  <COMPOUND>
O=C(O)C1C(C(=O)O)C2(Cl)C(Cl)=C(Cl)C1(Cl)C2(Cl)Cl (stereo not drawn)

>  <LABEL>
inactive

$$$$
>  <COMPOUND>
O=[N+]([O-])C(Br)Br

>  <LABEL>
active

$$$$

Name the outcome recorded for N#CC(Cl)Cl in the assay.
active

Name the outcome recorded for N#CSCSC#N in the assay.
active

Name the outcome recorded for ClC1=C(Cl)C2(Cl)C3C(Cl)C(Cl)CC3C1(Cl)C2(Cl)Cl (stereo not drawn) in the assay.
active

Name the outcome recorded for CC(C)CC(C)Nc1ccc(Nc2ccccc2)cc1 (stereo not drawn) in the assay.
active

Name the outcome recorded for O=[N+]([O-])c1cc(C(F)(F)F)cc([N+](=O)[O-])c1Cl in the assay.
active

Name the outcome recorded for c1ccc2cc3c(cc2c1)-c1cccc2cccc-3c12 in the assay.
inactive

Name the outcome recorded for COP(=O)(OC)O/C(=C\Cl)c1cc(Cl)c(Cl)cc1Cl in the assay.
inactive

Name the outcome recorded for c1ccccc1 in the assay.
inactive

====

Molecular target: Peroxisome proliferator-activated receptor gamma (Homo sapiens)
Assay: qHTS assay for small molecule agonists of peroxisome proliferator-activated receptor gamma signaling (AID 588536);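 further: 0% = DMSO basal wells and 100% = rosiglitazone at 2 µM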
Details: HEK293 PPARg-UAS-bla, beta-lactamase ratio, 16 h; series mostly up to 76.7 µM
Results filed as inconclusive are left out. Calls of active or inactive are those of the source. The call rests on the fitted dose curve; in most records, active means well fitted curve in the direction sought with a large enough effect in the signal ratio, with a control signal flat (not every such curve was filed as active); inconclusive means small, poorly fitted or top-dose-only effect, or effect the other way, or a change in a side signal; inactive means no such curve, though single readings can be large or run the other way; the % refers to the signal ratio.
Respond with a class label; see T = active, F = inactive

Here's what some known entries look like.
>  <COMPOUND>
CCCCC(CC)CO[N+](=O)[O-] (stereo unspecified)

>  <TARGET_UNDER_TEST>
Peroxisome proliferator-activated receptor gamma (Homo sapiens)

>  <LABEL>
F

$$$$
>  <COMPOUND>
CC1(C)CON(Cc2ccccc2Cl)C1=O

>  <TARGET_UNDER_TEST>
Peroxisome proliferator-activated receptor gamma (Homo sapiens)

>  <LABEL>
F

$$$$
>  <COMPOUND>
Brc1ccc(Oc2ccccc2)cc1

>  <TARGET_UNDER_TEST>
Peroxisome proliferator-activated receptor gamma (Homo sapiens)

>  <LABEL>
F

$$$$
>  <COMPOUND>
C=CC(=O)NCO

>  <TARGET_UNDER_TEST>
Peroxisome proliferator-activated receptor gamma (Homo sapiens)

>  <LABEL>
F

$$$$
>  <COMPOUND>
O=C1C=CC(=O)c2ccccc21

>  <TARGET_UNDER_TEST>
Peroxisome proliferator-activated receptor gamma (Homo sapiens)

>  <LABEL>
F

$$$$
>  <COMPOUND>
CCCCC(CC)C(=O)Cl (stereo unspecified)

>  <TARGET_UNDER_TEST>
Peroxisome proliferator-activated receptor gamma (Homo sapiens)

>  <LABEL>
F

$$$$

Now for a further compound.
Name the outcome recorded for Clc1ccccc1-c1nnc(-c2ccccc2Cl)nn1 in the assay.
F

====

System: CP325
Assay: qHTS profiling for inhibitors of Plasmodium falciparum proliferation (AID 504749); further: nearly all actives have a fitted effect of over 60% in size
Conditions: P. falciparum in erythrocytes, SYBR Green DNA, 72 h; series mostly up to 28.7 µM
Inconclusive results are not listed. Calls of active or inactive are those of the source. Calls follow the shape of the dose curve; as a rule, active = well fitted inhibition curve with a large enough effect; inconclusive = small, poorly fitted or top-dose-only effect; inactive = flat fitted curve, though single readings scatter.
Respond with a class label; see class 1 (active), class 0 (inactive)

Here's what some known entries look like.
>  <MOLECULE>
O=C1CC2OCC=C3CN4CCC56c7ccccc7N1C5[C@H]2[C@H]3C[C@H]46 (some centres not stated) (tested in a mixture with another compound)

>  <LABEL>
class 0

$$$$
>  <MOLECULE>
O=C1CC2OCC=C3CN4CC[C@]56c7ccccc7N1C5C2[C@H]3C[C@H]46 (some centres not stated)

>  <LABEL>
class 1

$$$$
>  <MOLECULE>
CCOC(=O)c1cncn1[C@@H](C)c1ccccc1

>  <LABEL>
class 0

$$$$

Name the outcome recorded for CC1(C)S[C@@H]2[C@H](N)C(=O)N2C1C(=O)O (some centres not stated) in the assay.
class 0

Name the outcome recorded for CN(C)[C@@H](Cc1ccccc1)c1ccccc1 in the assay.
class 0

====

Target: Tyrosyl-DNA phosphodiesterase 1 (Homo sapiens)
Test: Confirmation Assay for Inhibitors of Tyrosyl-DNA Phosphodiesterase (TDP1) (AID 489007); further: potency means the concentration at half of the fitted maximal effect; nearly all actives have a fitted effect of over 40% in size
Settings: recombinant human TDP1 enzymatic activity, dose-response
Records with an inconclusive call do not appear. Activity calls are given as the source filed them. The call rests on the fitted dose curve; in most records, active means well fitted inhibition curve with a large enough effect; inconclusive means small, poorly fitted or top-dose-only effect; inactive means flat fitted curve, though single readings scatter.
Potency values for the molecules below.

>  <MOLECULE>
CC(=O)Nc1ccc(N=Cc2c(O)n(Cc3ccco3)c(=O)[nH]c2=O)cc1

>  <Potency>
22.4 µM (active)

$$$$

Record request: Potency value, item C[C@H](CCC(=O)O)[C@H]1CC[C@@H]2[C@H]3CC[C@H]4C[C@H](O)CC[C@]4(C)[C@@H]3CC[C@@]21C
100 µM (active)

Record request: Potency value, item CCc1nnc(NC(=O)CSc2ccc(-c3ccco3)nn2)s1
15.8 µM (active)

Record request: Potency value, item CCOC(=O)CCCc1cc[c]([Sb](=[O])([OH])[OH])cc1
0.794 µM (active)

Record request: Potency value, item Nc1nc(/C(=C/CC(=O)O)C(=O)NC2C(=O)N3C(C(=O)O)=CCSC23)cs1 (stereo not given)
12.6 µM (active)

Record request: Potency value, item O=c1c2ccccc2nc(/C=C/c2cccnc2)n1Cc1ccccc1
14.1 µM (active)

Record request: Potency value, item CCOC(=O)C1CCN(/C=C2/C(=O)NC(=O)N(Cc3ccco3)C2=O)CC1
44.7 µM (active)

Record request: Potency value, item CCOc1ccc2nc(N=Nc3c(O)[nH]c(=O)[nH]c3=O)sc2c1
100 µM (active)

Record request: Potency value, item Oc1cc(O)c2c(c1)OC(c1cc(O)c(O)c(O)c1)C(O)C2 (stereo not given)
5.01 µM (active)

Record request: Potency value, item [O]=[Sb]([OH])([OH])[c]1ccccc1
6.31 µM (active)
